Test system: NEK10
Conditions: concentration: 1 μM, replicates: in singlicate; n = 1;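 also: KINOMEscan kinase panel screen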
Property name: %Inh (%)
Express it in %; write the number only.

Asked: Entry under review: Cc1ccc(Oc2ccc(Nc3ncnc4cc[nH]c34)cc2C)cn1 . Reported %Inh?
Given back: 0

Asked: Another molecule to check: Nc1ncnc2c1ncn2-c1ccc(Cl)cc1
Given back: 27

====

Tested on: PKN1
Details: concentration: 1 μM, replicates: in singlicate; n = 1
Measured %Inh accompanies every entry in the list below.
Express it in %; write the number only.

Observe how each entry below is paired with its result.
O=C(NCCNc1ccnc(Nc2ccc(F)cc2)n1)Nc1ccc2c(c1)OCO2 [GSK1379882] | 23
Cc1cc(Nc2nc(-c3cccc(C)n3)nc3ccccc23)ccn1 [GW872411] | 0
Cc1ccc(-c2ccc3c(ccc4sc5c(c43)NC[C@@H](C)N=C5N(C)C)n2)cn1 | 0
COC(=O)c1c(-c2ccccc2)c2cc(Br)ccc2c(=O)n1Cc1ccc(NC(=O)CCC(=O)O)cc1 | 0

Below: the item to evaluate.
Asked: Kindly state the measured %Inh obtained for CN(C)c1cc(-c2ccc3c(N)n[nH]c3c2)nc(N)n1 [GSK2219329] with PKN1.
Given back: 0

====

System: IKK-epsilon
Construct: gene IKBKE
Details: concentration: 1 μM, replicates: in singlicate; n = 1
Property name: %Inh (%)
Express it in %; write the number only.

Observe how each entry below is paired with its result.
CC(C)(C)c1ccc(C(=O)Nc2cn3cc(-c4ccccc4)ccc3n2)cc1 | 0
CCS(=O)(=O)c1ccc(OC)c(Nc2ncc(-c3ccc(F)cc3)o2)c1.Cl | 0
CN1C(=O)C(Nc2cc(Cl)c(O)c(Cl)c2)=C(c2ccc(Cl)cc2)C1=O | 0
Nc1n[nH]c2ncc(-c3ccccc3)cc12 | 13
CCCNC(=O)Nc1ccc(Oc2ncnc3ccn(C)c23)cc1 | 0

Asked: Entry under review: CCc1ccc(-c2ccc3c(c2)-c2nn(C)cc2S(=O)(=O)N3C)cc1 . Reported %Inh?
Given back: 0

====

Test system: FLT4
Settings: concentration: 1 μM, replicates: in singlicate; n = 1
Measured %Inh accompanies every entry in the list below.
Write the figure, then the unit, nothing else.

Observe how each entry below is paired with its result.
COc1cccc(C2=C(Nc3cccc(C(=O)O)c3)C(=O)NC2=O)c1 | 25%
COc1cc2ncn(-c3cc(OCc4ccncc4)c(C(N)=O)s3)c2cc1OC | 17%
Cc1cccc(-c2nc(Nc3ccc4c(cnn4C)c3)c3ccccc3n2)n1 | 0%
COc1cc2ncn(-c3cc(OCc4ccc(S(C)(=O)=O)cc4)c(C(N)=O)s3)c2cc1OC | 15%

Asked: Kindly state the measured %Inh obtained for Cn1c(=O)c(F)c(Nc2ccc(I)cc2F)c2c(=O)n(OC[C@H](O)CO)cnc21 with FLT4.
Given back: 10%

====

Measured %Inh accompanies every entry in the list below.
System: RPS6KA4(Kin.Dom.2-C-terminal)
Conditions: concentration: 1 μM, replicates: in singlicate; n = 1

Observe how each entry below is paired with its result.
Nc1nc(N)c2nc(-c3ccccc3)[nH]c2n1 | 0%
CCC(=O)c1c(-c2ccccc2)c2cc(Cl)ccc2c(=O)n1Cc1cc(C(=O)NC2CC2)n(C)n1 | 6%
COc1cc2nccc(Nc3cccc(Oc4ccccc4)c3)c2cc1OC.Cl | 0%
CN1C(=O)C(Nc2cc(Cl)c(O)c(Cl)c2)=C(c2ccc(Cl)cc2)C1=O | 0%
Cc1ccccc1COc1cc(-n2cnc3cc(Cl)ccc32)sc1C(N)=O | 22%
Cc1ccc(-c2ccc3c(ccc4sc5c(c43)NC[C@@H](C)N=C5N(C)C)n2)cn1 | 0%
CCn1c(-c2nonc2N)nc2ccccc21 | 40%
COc1ccc(Nc2nccc(N3CCC(NS(=O)(=O)c4ccc(NC(C)=O)cc4)C3)n2)cc1 (stereo not drawn) | 0%
COc1cc(Nc2nccc(N3CCC(NC(=O)C(C)c4ccc(Cl)cc4)C3)n2)cc(OC)c1OC (stereo not drawn) | 0%
COc1cc2ncn(-c3cc(OCCCc4ccccc4)c(C(N)=O)s3)c2cc1OC | 0%

Asked: Entry under review: OCCCNc1nccc(-c2c(-c3cccc(C(F)(F)F)c3)nn3cc(C(F)(F)F)ccc23)n1 . Reported %Inh?
Given back: 0%

Asked: Another compound to check: CC(C)(C)c1ccc(C(=O)Nc2cn3cc(-c4ccccc4)ccc3n2)cc1
Given back: 0%
